pIC50: −log10 of the molar value. Numbered stars: 1 amine (or outer) side, 2 acyl side, 3 side chain; on linkers, the order of the positions; unused ones are H or OH. Bridge positions count the residues as written; N and C are the ends. Square brackets hold non-standard residues; d marks the D form. Peptide text beside a SMILES is read from it. Acbc(cis-1,3) = O=C([C@H]1C[C@@H](N[*:1])C1)[*:2]
The following are reported pIC50 results, target or system SARS-CoV-2 M^pro (Severe acute respiratory syndrome coronavirus 2, UniProt P0DTD1).

[[record]]
compound = "CC(C)C[C@@H]1NC(=O)[C@H](CC(N)=O)NC(=O)[C@H](CC(C)C)NC(=O)[C@H]2C[C@H](C2)NC(=O)[C@H](C)NC(=O)[C@H](Cc2ccccc2)NC(=O)[C@@H](Cc2ccc(O)cc2)NC(=O)CSC[C@H](C(N)=O)NC(=O)CNC(=O)[C@@H]2CCCN2C(=O)[C@H](CCCNC(=N)N)NC(=O)[C@H](Cc2ccc(O)cc2)NC(=O)CNC1=O [GM4H3A] ({CH2CO}-[dY]FA[Acbc(cis-1,3)]LNLGYRPG[dC]-NH2; thioether N-13)"
target_desc = "SARS-CoV-2 M^pro (Severe acute respiratory syndrome coronavirus 2, UniProt P0DTD1)"
observed_property = "pIC50"
measurement = "< 4.60"


# pIC50 (compound: CC(C)C[C@@H]1NC(=O)[C@H]([C@@H](C)O)NC(=O)[C@H](Cc2ccc(O)cc2)NC(=O)[C@H]([C@@H](C)O)NC(=O)[C@H](Cc2c[nH]cn2)NC(=O)[C@@H]2CCCN2C(=O)[C@@H]2CCCN2C(=O)[C@H](Cc2ccccc2)NC(=O)[C@H](C)NC(=O)[C@H](Cc2c[nH]cn2)NC(=O)[C@H](Cc2ccccc2)NC(=O)[C@@H](Cc2ccc(O)cc2)NC(=O)CSC[C@H](C(N)=O)NC1=O [GM1γ^14A] ({CH2CO}-[dY]FHAFPPHTYTL[dC]-NH2; thioether N-13) ) is < 5.30

# pIC50 (compound: CC(C)C[C@@H]1NC(=O)[C@H](CC(N)=O)NC(=O)[C@H](CC(C)C)NC(=O)[C@H]2C[C@H](C2)NC(=O)[C@H](CCC(=O)O)NC(=O)[C@H](Cc2ccccc2)NC(=O)[C@@H](Cc2ccc(O)cc2)NC(=O)CSC[C@H](C(N)=O)NC(=O)CNC(=O)[C@@H]2CCCN2C(=O)[C@H](CCCNC(=N)N)NC(=O)[C@H](Cc2ccc(O)cc2)NC(=O)CNC1=O [GM4H3E] ({CH2CO}-[dY]FE[Acbc(cis-1,3)]LNLGYRPG[dC]-NH2; thioether N-13) ) is < 4.60
